Items are presented alongside their recorded Glomerular Filtration Rate.
test system: Wistar rats; test: Subacute toxicity: glomerular filtration rate (creatinine clearance) and serum creatinine; assay type: in vivo; settings: rats, p.o., 14 days at 10% of LD50 (CCl4, APAP: once daily, 3 days); mean ± SEM, n = 6
I only need the number, in mL/min, no unit after it.

Recorded Glomerular Filtration Rate, per entry:
# Compound string, Glomerular Filtration Rate, mL/min
data = [
    ("CCOC(=O)c1cn2ccccc2n1", 0.34),
    ("N#Cc1nc2ccccn2c1[N+](=O)[O-]", 1.81),
]

Here's the next entry for you.
Prompt: Find the measured Glomerular Filtration Rate of `O=C(O)c1nc2ccccn2c1[N+](=O)[O-]` with Wistar rats as test system.
Response: 0.63

###

tested on: Wistar rats; experiment: Subacute toxicity: water and electrolyte balance (osmolality, sodium, potassium, urinary flow); assay type: in vivo; conditions: rats, p.o., 14 days at 10% of LD50 (CCl4, APAP: once daily, 3 days); mean ± SEM, n = 6
Quick reference for Urinary Potassium Excretion among some compounds
The reply should be a number in µEq/min, with the unit left off.

# Compound, Tested target, Recorded result
data = [
    ("CC(=O)Nc1ccc(O)cc1 [APAP, acetaminophen, reference compound]", "Wistar rats", 0.47),
    ("CCOC(=O)c1nc2ccccn2c1[N+](=O)[O-]", "Wistar rats", 0.24),
    ("N#Cc1nc2ccccn2c1[N+](=O)[O-]", "Wistar rats", 1.38),
]

Now look at this one.
Prompt: Item `CCOC(=O)c1cn2ccccc2n1` : provide Urinary Potassium Excretion
Response: 0.34
